B1: library; numbered along this chain (parent)
chain: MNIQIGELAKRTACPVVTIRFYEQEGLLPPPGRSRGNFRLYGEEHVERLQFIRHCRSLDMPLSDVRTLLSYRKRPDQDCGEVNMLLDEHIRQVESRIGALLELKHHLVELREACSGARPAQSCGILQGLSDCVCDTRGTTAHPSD

variants of: B1; assay: sfGFP reporter fluorescence (15 h) (µM FITC); higher = higher leak; conditions: library round: Round 0; ligand: none
Values of sfGFP reporter fluorescence greater than or equal to 0.06 map to 1; values below map to 0.

Some solved cases for reference:
- mutantId: "L110G"
  assignedClass: 0
- mutantId: "L62S"
  assignedClass: 1
- mutantId: "P61K"
  assignedClass: 1
- mutantId: "Y41C"
  assignedClass: 1
- mutantId: "C134L"
  assignedClass: 1
- mutantId: "L110Q"
  assignedClass: 0
- mutantId: "R111L"
  assignedClass: 0
- mutantId: "D64I"
  assignedClass: 1

Input: hey, is sfGFP reporter fluorescence for this one >= 0.06? R33Q
Output: 1

Input: Is it the case that L101A has sfGFP reporter fluorescence reaching or exceeding 0.06?
Output: 1

Input: Does sfGFP reporter fluorescence meet or surpass 0.06 for E25A ?
Output: 1

Input: hey, is sfGFP reporter fluorescence for this one >= 0.06? V46P
Output: 0

Input: Hi, just wondering whether P143L shows sfGFP reporter fluorescence of 0.06 or higher.
Output: 0
